Test system: Platelet-derived growth factor receptor alpha (Homo sapiens), P16234 [T674I]
Sequence (P16234 whole entry T674I): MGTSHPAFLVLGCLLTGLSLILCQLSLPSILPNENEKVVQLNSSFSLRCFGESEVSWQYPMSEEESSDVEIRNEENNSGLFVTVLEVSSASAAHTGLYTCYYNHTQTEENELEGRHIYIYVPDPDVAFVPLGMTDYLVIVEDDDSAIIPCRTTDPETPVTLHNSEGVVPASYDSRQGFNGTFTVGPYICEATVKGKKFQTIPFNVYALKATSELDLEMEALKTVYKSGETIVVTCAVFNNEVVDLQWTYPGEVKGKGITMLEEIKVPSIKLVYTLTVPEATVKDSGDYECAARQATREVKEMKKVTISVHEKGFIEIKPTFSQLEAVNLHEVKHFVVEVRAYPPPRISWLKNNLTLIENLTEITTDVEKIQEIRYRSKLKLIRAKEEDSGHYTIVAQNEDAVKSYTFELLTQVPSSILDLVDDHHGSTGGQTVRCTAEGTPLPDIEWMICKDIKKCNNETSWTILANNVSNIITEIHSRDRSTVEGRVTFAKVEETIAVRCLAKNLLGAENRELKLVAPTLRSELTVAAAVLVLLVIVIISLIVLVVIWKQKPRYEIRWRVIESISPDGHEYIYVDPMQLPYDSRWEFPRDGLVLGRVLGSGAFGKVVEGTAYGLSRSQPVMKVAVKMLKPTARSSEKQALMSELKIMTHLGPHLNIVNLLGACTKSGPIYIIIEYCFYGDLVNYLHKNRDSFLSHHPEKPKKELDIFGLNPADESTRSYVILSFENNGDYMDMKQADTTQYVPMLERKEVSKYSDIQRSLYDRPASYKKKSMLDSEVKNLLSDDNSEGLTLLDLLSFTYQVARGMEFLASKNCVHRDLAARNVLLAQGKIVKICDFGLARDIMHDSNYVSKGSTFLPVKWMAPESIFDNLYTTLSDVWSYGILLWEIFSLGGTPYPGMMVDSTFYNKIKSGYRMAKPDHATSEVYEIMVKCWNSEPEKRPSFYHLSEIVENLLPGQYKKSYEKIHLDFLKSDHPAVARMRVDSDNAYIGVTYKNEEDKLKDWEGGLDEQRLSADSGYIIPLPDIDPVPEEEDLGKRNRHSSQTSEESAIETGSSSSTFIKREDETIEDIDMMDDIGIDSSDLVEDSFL
RUN_PARAMETERS: at 0.1 µM
REPORTED_PROPERTY: inhibition (%)
Quick reminder: number only, in %, skip the unit.

Simply: "O=C(O[C@H]1CN[C@H](C#Cc2cc3ncnc(Nc4ccc(Cc5ccccc5)cc4)c3s2)C1)N1CCOCC1" , Platelet-derived growth factor receptor alpha (Homo sapiens), P16234 [T674I], inhibition = 1.75

Here "N#Cc1c(NC(=O)c2ccc(F)cc2)sc2c1CCCC2" was tested on Platelet-derived growth factor receptor alpha (Homo sapiens), P16234 [T674I], and its inhibition came to 3.5

Note to self: inhibition of "COC(=O)Nc1nc2ccc(S(=O)(=O)c3ccc(NC(=O)Nc4cc(C(F)(F)F)ccc4F)cc3)cc2[nH]1" with Platelet-derived growth factor receptor alpha (Homo sapiens), P16234 [T674I] was 3.85
